The values you see were collected from patent US20120245137A1.

Molecular target: Human Cav 2.2 channels (Homo sapiens)
Sequence (Q00975 whole entry): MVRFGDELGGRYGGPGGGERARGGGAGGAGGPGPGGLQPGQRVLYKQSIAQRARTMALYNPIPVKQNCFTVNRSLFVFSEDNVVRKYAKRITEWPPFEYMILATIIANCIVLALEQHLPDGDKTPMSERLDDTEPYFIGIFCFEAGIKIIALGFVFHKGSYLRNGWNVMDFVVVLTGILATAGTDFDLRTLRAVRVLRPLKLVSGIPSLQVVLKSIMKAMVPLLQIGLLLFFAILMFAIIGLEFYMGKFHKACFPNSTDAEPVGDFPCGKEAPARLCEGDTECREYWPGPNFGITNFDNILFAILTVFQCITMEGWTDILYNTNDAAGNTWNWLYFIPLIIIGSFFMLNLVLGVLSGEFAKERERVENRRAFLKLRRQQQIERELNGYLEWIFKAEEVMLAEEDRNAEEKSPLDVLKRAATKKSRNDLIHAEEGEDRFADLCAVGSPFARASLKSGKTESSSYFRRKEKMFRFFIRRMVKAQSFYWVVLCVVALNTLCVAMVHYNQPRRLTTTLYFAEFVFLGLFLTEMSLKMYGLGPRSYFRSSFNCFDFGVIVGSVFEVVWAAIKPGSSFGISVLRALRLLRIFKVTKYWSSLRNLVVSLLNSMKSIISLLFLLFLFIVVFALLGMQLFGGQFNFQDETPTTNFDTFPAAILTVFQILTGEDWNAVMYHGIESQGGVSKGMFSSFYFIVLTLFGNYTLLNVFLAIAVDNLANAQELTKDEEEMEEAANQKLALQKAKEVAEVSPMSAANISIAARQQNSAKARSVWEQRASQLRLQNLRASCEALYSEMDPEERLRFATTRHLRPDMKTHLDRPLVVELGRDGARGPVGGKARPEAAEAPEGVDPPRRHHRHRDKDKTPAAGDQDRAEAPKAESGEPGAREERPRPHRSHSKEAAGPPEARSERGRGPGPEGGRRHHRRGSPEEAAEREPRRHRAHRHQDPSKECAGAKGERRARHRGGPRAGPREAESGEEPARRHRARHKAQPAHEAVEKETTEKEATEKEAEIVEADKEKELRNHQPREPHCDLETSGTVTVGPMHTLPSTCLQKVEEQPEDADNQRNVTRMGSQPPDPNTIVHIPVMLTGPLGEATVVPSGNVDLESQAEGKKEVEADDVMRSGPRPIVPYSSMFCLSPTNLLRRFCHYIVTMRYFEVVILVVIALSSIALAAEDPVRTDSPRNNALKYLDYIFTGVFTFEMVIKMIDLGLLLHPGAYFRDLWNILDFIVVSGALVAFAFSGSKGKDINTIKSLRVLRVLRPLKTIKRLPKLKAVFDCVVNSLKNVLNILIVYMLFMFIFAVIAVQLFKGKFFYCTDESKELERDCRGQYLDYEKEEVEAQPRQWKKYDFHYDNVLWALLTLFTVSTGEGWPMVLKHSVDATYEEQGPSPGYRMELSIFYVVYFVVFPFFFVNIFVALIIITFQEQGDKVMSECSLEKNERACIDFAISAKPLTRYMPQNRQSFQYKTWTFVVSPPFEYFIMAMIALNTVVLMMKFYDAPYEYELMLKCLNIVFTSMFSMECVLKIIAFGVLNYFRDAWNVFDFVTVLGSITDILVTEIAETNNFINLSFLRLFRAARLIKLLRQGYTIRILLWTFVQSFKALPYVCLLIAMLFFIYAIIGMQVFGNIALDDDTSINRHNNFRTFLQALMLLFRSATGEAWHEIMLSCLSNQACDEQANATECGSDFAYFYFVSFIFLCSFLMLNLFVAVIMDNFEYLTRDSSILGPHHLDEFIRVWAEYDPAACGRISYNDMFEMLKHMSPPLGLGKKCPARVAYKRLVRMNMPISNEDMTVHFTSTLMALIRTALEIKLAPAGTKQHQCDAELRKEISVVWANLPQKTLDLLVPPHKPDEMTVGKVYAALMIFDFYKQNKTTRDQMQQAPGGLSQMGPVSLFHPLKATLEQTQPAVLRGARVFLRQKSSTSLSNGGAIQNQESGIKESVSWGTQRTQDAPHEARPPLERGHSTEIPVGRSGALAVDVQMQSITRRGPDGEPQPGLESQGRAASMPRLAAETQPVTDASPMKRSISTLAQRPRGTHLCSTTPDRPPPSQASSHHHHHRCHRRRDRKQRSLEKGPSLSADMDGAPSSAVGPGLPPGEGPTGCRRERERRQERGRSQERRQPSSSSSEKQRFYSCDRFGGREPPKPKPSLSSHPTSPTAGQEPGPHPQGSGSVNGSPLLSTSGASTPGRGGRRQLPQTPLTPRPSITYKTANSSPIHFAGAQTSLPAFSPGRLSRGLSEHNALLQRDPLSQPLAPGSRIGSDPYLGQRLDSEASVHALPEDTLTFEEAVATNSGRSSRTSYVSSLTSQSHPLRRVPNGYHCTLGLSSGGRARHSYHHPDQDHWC
Sequence (P54289 25-1103 partner): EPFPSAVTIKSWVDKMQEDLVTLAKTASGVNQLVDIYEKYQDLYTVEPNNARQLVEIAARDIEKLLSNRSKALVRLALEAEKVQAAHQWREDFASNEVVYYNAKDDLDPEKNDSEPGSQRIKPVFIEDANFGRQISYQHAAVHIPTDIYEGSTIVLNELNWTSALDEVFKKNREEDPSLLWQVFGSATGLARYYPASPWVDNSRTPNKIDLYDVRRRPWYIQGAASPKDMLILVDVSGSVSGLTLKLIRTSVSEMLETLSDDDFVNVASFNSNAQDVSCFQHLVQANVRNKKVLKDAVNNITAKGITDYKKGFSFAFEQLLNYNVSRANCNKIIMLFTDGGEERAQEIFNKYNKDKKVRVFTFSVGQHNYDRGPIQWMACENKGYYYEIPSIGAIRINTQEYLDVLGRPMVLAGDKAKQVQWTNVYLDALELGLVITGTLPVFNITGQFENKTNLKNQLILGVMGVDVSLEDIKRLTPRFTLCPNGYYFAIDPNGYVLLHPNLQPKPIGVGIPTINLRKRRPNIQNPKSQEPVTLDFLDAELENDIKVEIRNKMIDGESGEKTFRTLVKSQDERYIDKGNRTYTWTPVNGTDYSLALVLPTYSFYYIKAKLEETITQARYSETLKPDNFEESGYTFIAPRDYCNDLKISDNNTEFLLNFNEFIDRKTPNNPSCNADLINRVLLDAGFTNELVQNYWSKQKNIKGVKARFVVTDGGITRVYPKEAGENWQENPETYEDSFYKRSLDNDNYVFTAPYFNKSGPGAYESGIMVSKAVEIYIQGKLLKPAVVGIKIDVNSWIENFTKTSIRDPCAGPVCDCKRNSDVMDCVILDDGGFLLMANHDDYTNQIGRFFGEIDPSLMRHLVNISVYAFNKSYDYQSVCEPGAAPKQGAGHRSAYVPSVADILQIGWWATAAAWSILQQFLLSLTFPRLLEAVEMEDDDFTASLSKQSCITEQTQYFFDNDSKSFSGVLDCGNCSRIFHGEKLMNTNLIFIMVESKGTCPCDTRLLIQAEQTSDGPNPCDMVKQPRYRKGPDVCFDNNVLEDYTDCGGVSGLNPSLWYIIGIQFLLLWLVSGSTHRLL
Sequence (P54284 whole entry partner): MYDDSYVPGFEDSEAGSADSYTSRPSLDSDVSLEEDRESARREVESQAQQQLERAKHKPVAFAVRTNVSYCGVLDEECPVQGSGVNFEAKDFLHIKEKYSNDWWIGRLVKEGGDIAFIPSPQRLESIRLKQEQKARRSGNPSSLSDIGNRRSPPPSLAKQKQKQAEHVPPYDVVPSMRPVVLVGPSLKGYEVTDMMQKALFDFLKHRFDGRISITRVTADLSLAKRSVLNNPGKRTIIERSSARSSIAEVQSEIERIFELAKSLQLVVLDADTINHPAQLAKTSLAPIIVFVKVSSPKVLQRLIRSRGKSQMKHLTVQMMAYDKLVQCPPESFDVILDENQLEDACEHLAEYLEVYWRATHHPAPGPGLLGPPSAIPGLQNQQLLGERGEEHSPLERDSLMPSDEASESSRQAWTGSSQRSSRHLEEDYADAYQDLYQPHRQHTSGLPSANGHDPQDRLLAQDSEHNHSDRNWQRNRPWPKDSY
Assay: Fluorescent assay for CaV2.2 channels using potassium depolarization (VIPR/FLIPR)
Format: cell-based
Conditions: FLIPR data; closed state; read-out: CAv2.2 IC50 Closed
MEASURE: IC50 (µM)

Consider the worked cases shown below.
> print(dat)
                                   compound  quantitative.result
1  CC(C)([C@H]1C[C@H](NC(=O)c2ncc(C(F)(F)F)cc2S(C)(=O)=O)C1)S(=O)(=O)c1cccc(OC(F)(F)F)c1                   10
2  O=C(NC[C@H]1C[C@H](S(=O)(=O)c2cccc(C(F)(F)F)c2)C1)c1ccc(C(F)(F)F)nc1                   10
3  N[C@@H]1CCCC[C@@H]1C(=O)NC[C@H]1C[C@H](S(=O)(=O)c2cccc(Cl)c2)C1                   10
4  CC(C)([C@H]1C[C@H](C(=O)Nc2ccc(C(F)(F)F)cn2)C1)S(=O)(=O)c1cccc(C(F)(F)F)c1                 1.69
5  NC1(CC(=O)NC[C@H]2C[C@H](S(=O)(=O)c3cccc(Cl)c3)C2)CCCCC1                   10

I: CC(C)(C1CC(CNC(=O)c2ccc(OCC(F)(F)F)nc2)C1)S(=O)(=O)c1cccc(C(F)(F)F)c1 (stereo not drawn)
II: CC(C)([C@H]1C[C@@H](NC(=O)c2ccc(F)c(Cl)c2)C1)S(=O)(=O)c1cc(F)cc(C(F)(F)F)c1
query: Which is greater in IC50, the first item I or the second item II ? Respond using the label that marks the chosen record.
result: II
(II: 2.83 µM, I: 1.66 µM)

A: CC(C)([C@H]1C[C@@H](CNC(=O)c2ncc(C(F)(F)F)cc2S(C)(=O)=O)C1)S(=O)(=O)c1cccc(C(F)(F)F)c1
B: CC(C)([C@H]1C[C@@H](CNC(=O)c2ccc(OCC(F)(F)F)nc2)C1)S(=O)(=O)c1cccc(C(F)(F)F)c1
query: Which is greater in IC50, the first item A or the second item B ? Respond using the label that marks the chosen record.
result: A

* * *

Target: human α1G T-type channels (Homo sapiens, UniProt O43497)
Experiment: T-type calcium channel block, whole cell patch clamp, α1G
Conditions: HEK cells stably expressing human α1G; mainly non-inactivated protocol; values above 10,000 nM represented as 10000
MEASURE: IC50 (nM)

> print(dat)
                                   compound  quantitative.result
1  CN(CCC(C)(C)S(=O)(=O)c1cccc(C(F)(F)F)c1)C(=O)c1ccc(C(F)(F)F)cn1                  610

a: O=C(N[C@H]1CC[C@@H](S(=O)(=O)c2cccc(C(F)(F)F)c2)CC1)c1ccc(Cl)c(OC(F)(F)F)c1
b: CC(C)(CCNC(=O)c1cc(C(F)(F)F)nc(S(C)(=O)=O)c1)S(=O)(=O)c1cc(F)cc(C(F)(F)F)c1
c: CC(C)(CCNC(=O)c1cc(S(C)(=O)=O)ccc1Cl)S(=O)(=O)c1cccc(C(F)(F)F)c1
d: O=C(N[C@H]1CC[C@@H](S(=O)(=O)c2cccc(C(F)(F)F)c2)CC1)c1cncc(C(F)(F)F)c1
query: Please produce an ascending ranking of these compounds based on IC50. Output spec: a listing of the labels in the requested order.
result: a, b, c, d
